tested target: Gαo-GTPγS (Drosophila melanogaster, UniProt P16378)
Sequence (P16378 other isoform, or with tags, fused parts or gaps): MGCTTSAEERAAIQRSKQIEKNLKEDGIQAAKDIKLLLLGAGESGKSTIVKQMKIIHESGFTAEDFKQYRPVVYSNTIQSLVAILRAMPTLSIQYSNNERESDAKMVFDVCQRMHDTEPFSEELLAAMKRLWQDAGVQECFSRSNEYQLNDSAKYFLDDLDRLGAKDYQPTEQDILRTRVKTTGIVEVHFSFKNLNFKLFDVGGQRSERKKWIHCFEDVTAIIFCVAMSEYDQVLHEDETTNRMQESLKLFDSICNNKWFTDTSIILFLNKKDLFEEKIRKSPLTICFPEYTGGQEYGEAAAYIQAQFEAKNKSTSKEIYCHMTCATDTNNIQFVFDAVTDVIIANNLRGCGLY
measurement notes: biochemical
Ends that are not written are not given here.
readout: Ki (µM)
Write down the numeric answer in µM and omit the unit.

Looking up KDDDFFEMLSRSQSKRMDDQRCSIKVNPSGAPAVAT [GoLoco1] , I found its Ki recorded as 10.6

----------
tested target: Gαo-GDP (Drosophila melanogaster)
Sequence (P16378 other isoform, or with tags, fused parts or gaps): as the sequence (P16378 other isoform, or with tags, fused parts or gaps) above
measurement notes: biochemical
Ends that are not written are not given here.
readout: Ki (µM)
Write down the numeric answer in µM and omit the unit.

Looking up KDDDFFEMLSRSQSKRMDDQRCSIKVNPSGAPAVAT [GoLoco1] , I found its Ki recorded as 17.6
